These data points were gathered from ChEMBL document CHEMBL6096628.

# target-desc: Protein cereblon/Bromodomain-containing protein 9 (Homo sapiens, UniProt Q9H8M2+Q96SW2)
# Sequence (Q96SW2 whole entry, looked up): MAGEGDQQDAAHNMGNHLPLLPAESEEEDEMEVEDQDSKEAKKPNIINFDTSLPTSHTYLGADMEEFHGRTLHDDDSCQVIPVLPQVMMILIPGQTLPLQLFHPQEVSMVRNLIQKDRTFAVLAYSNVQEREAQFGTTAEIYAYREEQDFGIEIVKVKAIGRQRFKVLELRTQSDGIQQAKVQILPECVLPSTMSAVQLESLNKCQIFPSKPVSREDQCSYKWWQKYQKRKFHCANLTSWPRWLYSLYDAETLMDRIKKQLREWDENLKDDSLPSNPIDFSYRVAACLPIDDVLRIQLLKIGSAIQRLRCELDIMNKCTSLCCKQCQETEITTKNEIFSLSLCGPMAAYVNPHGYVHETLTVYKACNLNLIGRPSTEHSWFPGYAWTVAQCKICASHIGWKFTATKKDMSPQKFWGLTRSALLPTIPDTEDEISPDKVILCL
# Sequence (Q9H8M2 whole entry, looked up): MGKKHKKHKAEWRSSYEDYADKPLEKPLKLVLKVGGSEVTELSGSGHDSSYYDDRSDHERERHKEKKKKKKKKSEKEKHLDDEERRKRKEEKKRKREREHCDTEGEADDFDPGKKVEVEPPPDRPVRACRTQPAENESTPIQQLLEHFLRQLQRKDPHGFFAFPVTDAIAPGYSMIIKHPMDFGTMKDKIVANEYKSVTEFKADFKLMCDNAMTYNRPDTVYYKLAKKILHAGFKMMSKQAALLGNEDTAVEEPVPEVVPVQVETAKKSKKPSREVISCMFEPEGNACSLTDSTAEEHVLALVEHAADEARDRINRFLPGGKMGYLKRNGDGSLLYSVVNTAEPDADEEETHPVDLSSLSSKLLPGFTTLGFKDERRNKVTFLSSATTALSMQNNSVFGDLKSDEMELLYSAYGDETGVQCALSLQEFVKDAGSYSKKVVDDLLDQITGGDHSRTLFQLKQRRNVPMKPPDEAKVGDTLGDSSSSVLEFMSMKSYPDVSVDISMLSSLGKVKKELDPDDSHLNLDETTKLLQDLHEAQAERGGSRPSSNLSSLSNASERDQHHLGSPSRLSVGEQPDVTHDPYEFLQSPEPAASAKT
# experiment: PROTAC activity at CRBN/BRD9 in human MV4-11 cells assessed as induction of BRD9 degradation at 100 nM by Western blot analysis relative to control
# Type: cell-based
result-type: Activity (%)
Answers are plain numbers, in %.

// below: answered compounds
> print(dat)
                                   compound                               target.desc  units.label  recorded.value
1  COc1cc(-c2cn(C)c(=O)c3ccccc23)cc(OC)c1CN1CCC(CN2CCN(c3ccc(OC4CCC(=O)NC4=O)cc3)CC2)CC1 (configuration not stated)  Protein cereblon/Bromodomain-containing protein 9 (Homo sapiens, UniProt Q9H8M2+Q96SW2)            %              98
2  COc1cc(-c2cn(C)c(=O)c3ccccc23)cc(OC)c1CN1CCN(c2ccc(NC3CCC(=O)NC3=O)cn2)CC1 (configuration not stated)  Protein cereblon/Bromodomain-containing protein 9 (Homo sapiens, UniProt Q9H8M2+Q96SW2)            %            59.3
3  COc1cc(-c2cn(C)c(=O)c3ccccc23)cc(OC)c1CN1CCN(c2ccc(C(=O)NC3CCC(=O)NC3=O)nc2)CC1 (configuration not stated)  Protein cereblon/Bromodomain-containing protein 9 (Homo sapiens, UniProt Q9H8M2+Q96SW2)            %              65
4  COc1cc(-c2cn(C)c(=O)c3ccccc23)cc(OC)c1CN1CCC(CN2CCN(c3ccc(NC4CCC(=O)NC4=O)cc3)CC2)CC1 (configuration not stated)  Protein cereblon/Bromodomain-containing protein 9 (Homo sapiens, UniProt Q9H8M2+Q96SW2)            %            97.5
5  COc1cc(-c2cn(C)c(=O)c3ccccc23)cc(OC)c1CN1CCN(c2ccc(NC3CCC(=O)NC3=O)cc2)CC1 (configuration not stated)  Protein cereblon/Bromodomain-containing protein 9 (Homo sapiens, UniProt Q9H8M2+Q96SW2)            %            80.5
6  COc1cc(-c2cn(C)c(=O)c3ccccc23)cc(OC)c1CN1CCC(c2ccc3c4c(cccc24)C(=O)N3C2CCC(=O)NC2=O)CC1 (configuration not stated)  Protein cereblon/Bromodomain-containing protein 9 (Homo sapiens, UniProt Q9H8M2+Q96SW2)            %            50.5

Attention now shifts to the item below.
Asked: Bench note: what Activity did COc1cc(-c2cn(C)c(=O)c3ccccc23)cc(OC)c1CN1CCC(CN2CCN(c3ccc(NC4CCC(=O)NC4=O)cn3)CC2)CC1 (configuration not stated) show?
Given back: 86.5
